inhibition listing for selected molecules.
- ASSAYED SYSTEM: Receptor-type tyrosine-protein phosphatase F (Homo sapiens)
- RUN DESCRIPTION: Percent inhibition of Protein-tyrosine phosphatase Lar assayed at 100 uM
Number in %, nothing else.

Reference set, count: 3
# MOLECULE, inhibition (%)
measured = [
    ("O=C(O)CCC(=O)NC(Cc1ccc(OC(C(=O)O)C(=O)O)cc1)C(=O)NCc1ccc(C(=O)O)cc1 (stereo not given)", 2),
    ("CCCCCNC(=O)C(Cc1ccc(OC(C(=O)O)C(=O)O)cc1)NC(=O)[C@H](COc1ccc(Cc2cc(Cl)ccc2Cl)cc1)NC(=O)CCC(=O)O (stereo not given in full)", 33),
    ("CCCCCNC(=O)C(Cc1ccc(O)c(C(=O)O)c1)NC(=O)CCC(=O)O (stereo not given)", 0),
]

Notebook: CCCCC(N)C(=O)NC(=O)C(Cc1ccc(OC(C(=O)O)C(=O)O)cc1)NC(=O)CCC(=O)O (stereo not given) , inhibition read as 4

Notebook: CCCCCNC(=O)C(Cc1ccc(OC(C(=O)O)C(=O)O)cc1)NC(=O)[C@H](CCC(=O)O)NC(=O)CCC(=O)O (stereo not given in full) , inhibition read as 10

====

inhibition listing for selected molecules.
- ASSAYED SYSTEM: Tyrosine-protein phosphatase non-receptor type 1 (Rattus norvegicus) (UniProt P20417)
- Sequence (P20417 whole entry): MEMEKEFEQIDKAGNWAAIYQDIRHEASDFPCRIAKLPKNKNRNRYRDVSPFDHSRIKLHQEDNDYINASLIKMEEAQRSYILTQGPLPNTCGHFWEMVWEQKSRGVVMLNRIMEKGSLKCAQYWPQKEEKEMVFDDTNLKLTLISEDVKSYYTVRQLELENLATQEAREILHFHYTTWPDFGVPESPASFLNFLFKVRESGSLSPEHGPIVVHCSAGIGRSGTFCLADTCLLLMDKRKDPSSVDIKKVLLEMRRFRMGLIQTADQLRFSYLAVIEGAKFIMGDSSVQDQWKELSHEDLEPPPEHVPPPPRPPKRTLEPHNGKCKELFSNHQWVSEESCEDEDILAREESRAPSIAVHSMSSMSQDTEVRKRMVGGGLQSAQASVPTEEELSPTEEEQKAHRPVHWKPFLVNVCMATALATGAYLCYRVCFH
- RUN DESCRIPTION: Percent inhibition of Protein-tyrosine phosphatase 1 (PTP) assayed at 100 uM
Number in %, nothing else.

Reference set, count: 3
# MOLECULE, ASSAYED SYSTEM, MEASURE UNIT, inhibition
measured = [
    ("CCCCCNC(=O)C(Cc1ccc(OC(C(=O)O)C(=O)O)cc1)NC(=O)[C@H](CC(=O)O)NC(=O)CCCCC (stereo partly specified)", "Tyrosine-protein phosphatase non-receptor type 1 (Rattus norvegicus) (UniProt P20417)", "%", 91),
    ("O=C(O)CCC(=O)NC(Cc1ccc(OC(C(=O)O)C(=O)O)cc1)C(=O)NCCCN1CCOCC1 (stereo unspecified)", "Tyrosine-protein phosphatase non-receptor type 1 (Rattus norvegicus) (UniProt P20417)", "%", 35),
    ("CCCCCNC(=O)C(Cc1ccc(OC(C(=O)O)C(=O)O)cc1)NC(=O)[C@H]1C[C@@H]1C(=O)O (stereo partly specified)", "Tyrosine-protein phosphatase non-receptor type 1 (Rattus norvegicus) (UniProt P20417)", "%", 57),
]

For O=C(O)CCC(=O)NC(Cc1ccc(OC(C(=O)O)C(=O)O)cc1)C(=O)NCCOc1ccccc1 (stereo unspecified) on Tyrosine-protein phosphatase non-receptor type 1 (Rattus norvegicus) (UniProt P20417), measured inhibition was 57

For O=C(O)CCC(=O)NC(Cc1ccc(OC(C(=O)O)C(=O)O)cc1)C(=O)NCc1cccc2ccccc12 (stereo unspecified) on Tyrosine-protein phosphatase non-receptor type 1 (Rattus norvegicus) (UniProt P20417), measured inhibition was 61

For NS(=O)(=O)c1ccc(CCNC(=O)C(Cc2ccc(OC(C(=O)O)C(=O)O)cc2)NC(=O)CCC(=O)O)cc1 (stereo unspecified) on Tyrosine-protein phosphatase non-receptor type 1 (Rattus norvegicus) (UniProt P20417), measured inhibition was 63

====

- ASSAYED SYSTEM: Tyrosine-protein phosphatase non-receptor type 1 (Rattus norvegicus) (UniProt P20417)
- RUN DESCRIPTION: Percent inhibition of Protein-tyrosine phosphatase 1 (PTP) assayed at 100 uM
inhibition listing for selected compounds.
Number in %, nothing else.

Reference set, count: 3
# COMPOUND, inhibition [%]
records = [
    ("CCCCCNC(=O)C(Cc1ccc(OC(CC(=O)O)C(=O)O)cc1)NC(=O)CCC(=O)O (centres undefined)", 34),
    ("CCCCCNC(=O)C(Cc1ccc(OC(C(=O)O)C(=O)O)c(F)c1F)NC(=O)CCC(=O)O (centres undefined)", 85),
    ("CCCCCNC(=O)C(Cc1ccc(O)c(C(=O)O)c1)NC(=O)CCC(=O)O (centres undefined)", 0),
]

Notebook: CCCCCNC(=O)C(Cc1ccc(OCC(N)=O)c(C(=O)O)c1)NC(=O)CCC(=O)O (centres undefined) , inhibition read as 16

Notebook: CCCCCNC(=O)C(Cc1ccc(OC(C(=O)O)C(=O)O)cc1)NC(=O)[C@H](CCC(=O)O)NC(=O)CCC(=O)O (some centres undefined) , inhibition read as 96

Notebook: CCCCCNC(=O)C(Cc1ccc(OC(C(=O)O)C(=O)O)cc1)NC(=O)[C@H](CC(=O)O)NC(=O)OCc1ccccc1 (some centres undefined) , inhibition read as 90

Notebook: CCCCCNC(=O)C(Cc1ccc(OC(C(=O)O)C(=O)O)cc1)NC(=O)COCC(=O)O (centres undefined) , inhibition read as 53

Notebook: CCCCCNC(=O)C(Cc1ccc(OC(C(=O)O)C(=O)O)cc1)NC(=O)C1C2CCC(C2)[C@@H]1C(=O)O (some centres undefined) , inhibition read as 37

Notebook: CCCCCNC(=O)C(Cc1ccc(CC(C(=O)O)C(=O)O)cc1)NC(=O)CCC(=O)O (centres undefined) , inhibition read as 34

====

inhibition listing for selected compounds.
- ASSAYED SYSTEM: Receptor-type tyrosine-protein phosphatase F (Homo sapiens)
- RUN DESCRIPTION: Percent inhibition of Protein-tyrosine phosphatase Lar assayed at 100 uM
Number in %, nothing else.

Reference set, count: 5
# COMPOUND, inhibition [%]
measured = [
    ("CCCCCNC(=O)C(Cc1ccc(OCC(=O)O)cc1)NC(=O)CCC(=O)O (centres undefined)", 0),
    ("CCCCCNC(=O)C(Cc1ccc(OS(=O)(=O)O)cc1)NC(=O)CCC(=O)O (centres undefined)", 5),
    ("CCCCCNC(=O)C(Cc1ccc(OC(C(=O)O)C(=O)O)cc1)NC(=O)c1ccccc1C(=O)O (centres undefined)", 10),
    ("CCCCCNC(=O)C(Cc1ccc(OC(C(=O)O)C(=O)O)cc1)NC(=O)[C@H](CC(=O)O)NC(=O)OC(C)(C)C (some centres undefined)", 10),
    ("CCCCCNC(=O)C(Cc1ccc(OC(C(=O)O)C(=O)O)cc1)NC(=O)[C@H](CCC(=O)O)NC(=O)OC(C)(C)C (some centres undefined)", 11),
]

Notebook: CCCCCNC(=O)C(Cc1ccc(CC(C(=O)O)C(=O)O)cc1)NC(=O)CCC(=O)O (centres undefined) , inhibition read as 3

Notebook: CCCCCNC(=O)C(Cc1ccc(OC(C(=O)O)C(=O)O)cc1)NC(=O)[C@H]1C[C@@H]1C(=O)O (some centres undefined) , inhibition read as 6

Notebook: O=C(O)CCC(=O)NC(Cc1ccc(OC(C(=O)O)C(=O)O)cc1)C(=O)NCCCN1CCOCC1 (centres undefined) , inhibition read as 0

Notebook: CCCCCNC(=O)C(Cc1ccc(OC(C(=O)O)C(=O)O)cc1)NC(=O)CC(=O)O (centres undefined) , inhibition read as 7

====

- ASSAYED SYSTEM: Receptor-type tyrosine-protein phosphatase F (Homo sapiens) (UniProt P10586)
- Sequence (P10586 whole entry): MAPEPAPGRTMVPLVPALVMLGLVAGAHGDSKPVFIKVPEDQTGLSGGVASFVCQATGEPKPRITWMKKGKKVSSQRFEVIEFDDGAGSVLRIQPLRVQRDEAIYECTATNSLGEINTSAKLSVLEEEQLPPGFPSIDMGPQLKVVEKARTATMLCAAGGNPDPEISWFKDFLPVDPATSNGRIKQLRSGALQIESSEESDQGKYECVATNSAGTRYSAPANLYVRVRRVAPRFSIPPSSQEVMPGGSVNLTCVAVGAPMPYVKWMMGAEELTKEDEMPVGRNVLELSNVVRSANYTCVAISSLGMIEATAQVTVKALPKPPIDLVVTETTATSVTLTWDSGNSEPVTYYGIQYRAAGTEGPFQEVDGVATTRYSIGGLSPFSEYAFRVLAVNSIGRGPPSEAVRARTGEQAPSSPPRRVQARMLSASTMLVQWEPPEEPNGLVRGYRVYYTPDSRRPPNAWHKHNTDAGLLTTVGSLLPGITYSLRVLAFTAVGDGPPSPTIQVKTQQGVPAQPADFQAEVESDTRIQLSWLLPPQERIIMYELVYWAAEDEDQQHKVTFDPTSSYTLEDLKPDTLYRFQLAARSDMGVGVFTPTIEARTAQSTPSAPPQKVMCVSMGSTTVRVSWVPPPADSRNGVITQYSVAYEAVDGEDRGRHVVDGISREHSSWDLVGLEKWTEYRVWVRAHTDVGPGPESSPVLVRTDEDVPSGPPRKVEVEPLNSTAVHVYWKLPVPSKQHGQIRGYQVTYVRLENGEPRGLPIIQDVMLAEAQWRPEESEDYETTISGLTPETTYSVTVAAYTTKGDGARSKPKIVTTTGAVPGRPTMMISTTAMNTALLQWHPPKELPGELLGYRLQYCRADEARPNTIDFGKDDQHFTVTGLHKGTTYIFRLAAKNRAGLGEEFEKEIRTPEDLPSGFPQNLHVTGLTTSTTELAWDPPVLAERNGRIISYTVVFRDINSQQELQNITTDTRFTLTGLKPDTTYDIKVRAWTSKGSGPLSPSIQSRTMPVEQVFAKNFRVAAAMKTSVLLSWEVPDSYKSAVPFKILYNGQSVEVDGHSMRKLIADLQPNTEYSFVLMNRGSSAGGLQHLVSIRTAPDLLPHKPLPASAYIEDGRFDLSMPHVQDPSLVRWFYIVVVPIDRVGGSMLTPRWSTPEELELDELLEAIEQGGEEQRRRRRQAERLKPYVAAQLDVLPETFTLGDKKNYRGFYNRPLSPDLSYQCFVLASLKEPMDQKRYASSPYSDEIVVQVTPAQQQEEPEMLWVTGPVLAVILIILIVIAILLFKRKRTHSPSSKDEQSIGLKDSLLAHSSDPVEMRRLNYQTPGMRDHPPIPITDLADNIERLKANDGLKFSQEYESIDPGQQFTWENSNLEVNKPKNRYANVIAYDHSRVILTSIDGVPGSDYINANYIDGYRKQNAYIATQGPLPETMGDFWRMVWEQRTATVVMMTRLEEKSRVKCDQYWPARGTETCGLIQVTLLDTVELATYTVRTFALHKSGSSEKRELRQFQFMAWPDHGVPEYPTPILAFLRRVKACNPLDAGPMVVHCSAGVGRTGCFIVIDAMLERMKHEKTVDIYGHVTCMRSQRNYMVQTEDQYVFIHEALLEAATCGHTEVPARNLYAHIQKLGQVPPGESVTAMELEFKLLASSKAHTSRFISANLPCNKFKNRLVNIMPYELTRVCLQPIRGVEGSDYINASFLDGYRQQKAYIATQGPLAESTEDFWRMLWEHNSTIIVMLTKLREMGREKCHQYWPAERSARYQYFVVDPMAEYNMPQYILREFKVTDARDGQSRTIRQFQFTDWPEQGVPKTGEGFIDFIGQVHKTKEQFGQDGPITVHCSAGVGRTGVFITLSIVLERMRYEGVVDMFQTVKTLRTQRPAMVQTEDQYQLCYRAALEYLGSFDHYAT
- RUN DESCRIPTION: Percent inhibition of Protein-tyrosine phosphatase Lar assayed at 100 uM
MEASURED METRIC: inhibition (%)
Number in %, nothing else.

Reference set, count: 10
# MOLECULE, ASSAYED SYSTEM, MEASURE UNIT, inhibition
records = [
    ("CCCCCNC(=O)C(Cc1ccc(OC(C(=O)O)C(=O)O)cc1)NC(=O)[C@H](CC(=O)O)NC(=O)CCC(=O)O (stereo partly specified)", "Receptor-type tyrosine-protein phosphatase F (Homo sapiens) (UniProt P10586)", "%", 7),
    ("CCCCCNC(=O)C(Cc1ccc(OC(C(=O)O)C(=O)O)cc1)NC(=O)[C@H](CC(=O)O)NC(=O)CCCCC (stereo partly specified)", "Receptor-type tyrosine-protein phosphatase F (Homo sapiens) (UniProt P10586)", "%", 10),
    ("CCCCCNC(=O)C(Cc1ccc(OCC(=O)O)c(C(=O)O)c1)NC(=O)[C@H](Cc1ccccc1)NC(=O)CCC(=O)O (stereo partly specified)", "Receptor-type tyrosine-protein phosphatase F (Homo sapiens) (UniProt P10586)", "%", 0),
    ("CCCCCNC(=O)C(Cc1ccc(OC(C(=O)O)C(=O)O)cc1)NC(=O)CCCC(=O)O (stereo unspecified)", "Receptor-type tyrosine-protein phosphatase F (Homo sapiens) (UniProt P10586)", "%", 7),
    ("CCCCCNC(=O)[C@H](Cc1ccc(OCC(=O)O)c(C(=O)O)c1)NC(=O)[C@@H](Cc1ccccc1)NC(=O)OC(C)(C)C", "Receptor-type tyrosine-protein phosphatase F (Homo sapiens) (UniProt P10586)", "%", 0),
    ("CCCCCNC(=O)C(CCc1ccc(OC(C(=O)O)C(=O)O)cc1)NC(=O)CCC(=O)O (stereo unspecified)", "Receptor-type tyrosine-protein phosphatase F (Homo sapiens) (UniProt P10586)", "%", 0),
    ("CCCCCNC(=O)C(Cc1ccc(OC(C(=O)O)C(=O)O)cc1)NC(=O)[C@H](C)NC(=O)OC(C)(C)C (stereo partly specified)", "Receptor-type tyrosine-protein phosphatase F (Homo sapiens) (UniProt P10586)", "%", 0),
    ("O=C(O)CCC(=O)NC(Cc1ccc(OC(C(=O)O)C(=O)O)cc1)C(=O)NCc1cccc2ccccc12 (stereo unspecified)", "Receptor-type tyrosine-protein phosphatase F (Homo sapiens) (UniProt P10586)", "%", 10),
    ("CCCCCNC(=O)C(Cc1ccc(OC(C(=O)O)C(=O)O)cc1)NC(=O)[C@H]1CCCC[C@H]1C(=O)O (stereo partly specified)", "Receptor-type tyrosine-protein phosphatase F (Homo sapiens) (UniProt P10586)", "%", 8),
    ("O=C(O)CCC(=O)NC(Cc1ccc(OC(C(=O)O)C(=O)O)cc1)C(=O)NCCCc1ccccc1 (stereo unspecified)", "Receptor-type tyrosine-protein phosphatase F (Homo sapiens) (UniProt P10586)", "%", 6),
]

API: the following record is the query input.
Notebook: O=C(O)CCC(=O)NC(Cc1ccc(OC(C(=O)O)C(=O)O)cc1)C(=O)NCc1ccc2c(c1)OCO2 (stereo unspecified) , inhibition read as 6
